Entries and their Trimeric HA Binding: RLU values follow.
target: recombinant soluble homotrimeric HA of A/Solomon Islands/3/06 (H1N1) (Influenza A virus A/Solomon Islands/3/2006(H1N1)); test: trimeric HA microarray, transfection supernatant set 2; details: remark: other sources report otherwise
Write the value in RLU as a bare number.

Worked examples follow.
binder	measurement_kind	val
TCN-523 (5248_A17) (antibody, V domains shown) VH: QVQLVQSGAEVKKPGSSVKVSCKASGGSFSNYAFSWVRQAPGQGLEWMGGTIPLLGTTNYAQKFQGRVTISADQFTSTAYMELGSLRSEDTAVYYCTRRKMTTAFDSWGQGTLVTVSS VL: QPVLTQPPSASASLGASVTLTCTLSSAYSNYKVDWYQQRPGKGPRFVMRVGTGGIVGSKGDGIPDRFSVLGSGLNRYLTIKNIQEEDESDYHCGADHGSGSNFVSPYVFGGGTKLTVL	Trimeric HA Binding: RLU	3270
TCN-527 (5086_C06) (antibody, V domains shown) VH: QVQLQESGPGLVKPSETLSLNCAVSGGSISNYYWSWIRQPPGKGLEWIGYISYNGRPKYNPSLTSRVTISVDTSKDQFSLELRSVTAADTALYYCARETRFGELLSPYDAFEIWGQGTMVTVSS VL: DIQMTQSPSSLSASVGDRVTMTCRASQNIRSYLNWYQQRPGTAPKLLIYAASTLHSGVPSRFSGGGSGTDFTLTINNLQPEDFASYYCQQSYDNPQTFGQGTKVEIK	Trimeric HA Binding: RLU	19700

Now for a further binder.
Note to self: Trimeric HA Binding: RLU recorded for TCN-563 (5237_B21) (antibody, V domains shown) VH: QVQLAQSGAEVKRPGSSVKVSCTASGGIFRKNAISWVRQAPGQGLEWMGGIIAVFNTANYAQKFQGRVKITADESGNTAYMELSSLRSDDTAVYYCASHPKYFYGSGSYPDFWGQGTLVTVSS VL: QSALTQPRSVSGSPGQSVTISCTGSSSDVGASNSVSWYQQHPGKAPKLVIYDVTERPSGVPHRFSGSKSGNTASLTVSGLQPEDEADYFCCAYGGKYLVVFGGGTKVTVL was 26500

Source listed as patent US20150086555A1.
